Reported IC50 values for a set of compounds
- Measurement target: Protein arginine deiminase 4 (PAD4) (Homo sapiens)
- Sequence (Q9UM07 whole entry): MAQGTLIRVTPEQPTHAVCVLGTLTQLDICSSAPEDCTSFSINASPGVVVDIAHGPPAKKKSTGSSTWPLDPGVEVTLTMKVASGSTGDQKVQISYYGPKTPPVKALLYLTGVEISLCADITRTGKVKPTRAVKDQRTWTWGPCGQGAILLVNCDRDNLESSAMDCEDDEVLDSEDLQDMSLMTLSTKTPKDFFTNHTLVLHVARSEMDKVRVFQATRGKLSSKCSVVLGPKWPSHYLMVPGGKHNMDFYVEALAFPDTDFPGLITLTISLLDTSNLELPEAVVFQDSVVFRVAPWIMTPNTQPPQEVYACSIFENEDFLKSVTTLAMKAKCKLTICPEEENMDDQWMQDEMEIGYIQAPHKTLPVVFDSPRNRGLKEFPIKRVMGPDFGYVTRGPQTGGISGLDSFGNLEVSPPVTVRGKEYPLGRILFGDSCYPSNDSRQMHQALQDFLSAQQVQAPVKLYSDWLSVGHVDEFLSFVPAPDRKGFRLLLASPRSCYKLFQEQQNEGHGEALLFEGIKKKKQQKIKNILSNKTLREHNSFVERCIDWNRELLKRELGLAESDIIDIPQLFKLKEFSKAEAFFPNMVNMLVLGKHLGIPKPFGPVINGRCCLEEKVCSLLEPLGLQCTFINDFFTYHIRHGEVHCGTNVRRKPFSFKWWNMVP
- Assay info: PAD4 ammonia release assay
- Format: biochemical
- Condition parameters: PAD4 ammonia release assay, BAEE substrate, 60 min at RT; read-out: Average IC50 Abs

{"columns": ["Compound", "Measurement target", "Observed result"],
 "data": [
  ["CCC1CN(CCCO)c2cccc3cc(-c4nc5cc(C(=O)N6C[C@H]7CC[C@@H]6[C@@H]7N)cc(OC)c5n4C)n1c23 (stereo partly shown) [Example 85]", "Protein arginine deiminase 4 (PAD4) (Homo sapiens)", "100 to 500 nM"]
]}

Here Cn1c(-c2cc3ccc4c(c3n2CC2CC2)NCCS4)nc2cc(C(=O)N3C[C@H]4CC[C@@H]3[C@@H]4N)cc(F)c21 was tested on Protein arginine deiminase 4 (PAD4) (Homo sapiens), and its IC50 came to ≤ 100 nM

Here CCC1CNc2cccc3cc(-c4nc5cc(C(=O)N6C[C@H]7CC[C@@H]6[C@@H]7N)cc(OC)c5n4C)n1c23 (stereo partly shown) was tested on Protein arginine deiminase 4 (PAD4) (Homo sapiens), and its IC50 came to 100 to 500 nM

Here COc1cc(C(=O)N2C[C@H](N)C[C@@H](F)C2)cc2nc(-c3cc4cccc5c4n3CCN5CCCO)n(C)c12 was tested on Protein arginine deiminase 4 (PAD4) (Homo sapiens), and its IC50 came to 100 to 500 nM

Here CCC1CNc2c(C#N)ccc3cc(-c4nc5cc(C(=O)N6C[C@H]7CC[C@@H]6[C@@H]7N)cc(F)c5n4C)n1c23 (stereo partly shown) was tested on Protein arginine deiminase 4 (PAD4) (Homo sapiens), and its IC50 came to 100 to 500 nM

Here Cn1c(-c2cc3ccc4c(c3n2CC2CC2)CCN(C2CC2)C4)nc2cc(C(=O)N3C[C@H]4CC[C@@H]3[C@@H]4N)cc(F)c21 was tested on Protein arginine deiminase 4 (PAD4) (Homo sapiens), and its IC50 came to 100 to 500 nM

Here COc1cc(C(=O)N2C[C@H]3CC[C@@H]2[C@@H]3N)cc2nc(-c3cc4cccc5c4n3C(C3CC3)CN5)c(C)n12 (stereo partly shown) was tested on Protein arginine deiminase 4 (PAD4) (Homo sapiens), and its IC50 came to > 5000 nM

Here CC[C@@H]1CN(CCCO)c2cccc3cc(-c4nc5cc(C(=O)N6C[C@H]7CC[C@@H]6[C@@H]7N)cc(F)c5n4CC)n1c23 was tested on Protein arginine deiminase 4 (PAD4) (Homo sapiens), and its IC50 came to > 5000 nM

Here Cn1c(-c2cc3cccc4c3n2C(C2CC2)CN4)nc2cc(C(=O)N3C[C@H]4CC[C@@H]3[C@@H]4N)cc(F)c21 (mixture of isomers) was tested on Protein arginine deiminase 4 (PAD4) (Homo sapiens), and its IC50 came to ≤ 100 nM

Here COc1cc(C(=O)N2C[C@H](N)C[C@@H](F)C2)cc2nc(-c3cc4cccc5c4n3CCN5CCCNC(=O)NC3CC3)n(C)c12 was tested on Protein arginine deiminase 4 (PAD4) (Homo sapiens), and its IC50 came to 500 to 5000 nM

Here Cn1c(-c2cc3ccn4c(=O)[nH]nc4c3n2CC2CC2)nc2cc(C(=O)N3C[C@H]4CC[C@@H]3[C@@H]4N)cc(F)c21 was tested on Protein arginine deiminase 4 (PAD4) (Homo sapiens), and its IC50 came to 500 to 5000 nM

Here COc1cc(C(=O)N2CCC[C@@H](N)C2)cc2nc(-c3cc4cccc5c4n3CCN5CCCOC(=O)NC3CC3)n(C)c12 was tested on Protein arginine deiminase 4 (PAD4) (Homo sapiens), and its IC50 came to 500 to 5000 nM

Here CCC1CN(CCCOC)c2cccc3cc(-c4nc5cc(C(=O)N6C[C@H](N)C[C@@H](F)C6)cc(OC)c5n4C)n1c23 (stereo partly shown) was tested on Protein arginine deiminase 4 (PAD4) (Homo sapiens), and its IC50 came to 100 to 500 nM
